The measured values listed here are drawn from the supplement of paper PMC10567573.

B1: RSPH3 (parent)
chain: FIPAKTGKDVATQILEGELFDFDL

- Variants of: B1
- test_name: protein stability index of a GFP-peptide fusion (GPS, HEK-293T) (PSI 1-6); higher = more stable;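 note: lentivirally expressed fusions sorted by FACS into six bins by GFP to DsRed ratio, PSI derived from sequencing read proportions per bin multiplied by bin number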
- measurement_setup: c terminus: a fixed tail appended
Could you please report measured protein stability index for the items listed next?
Give the figure by itself; no unit, no explanation.

Entry Q13H ; protein stability index = 2.62

// sample V10A , its protein stability index was 1.84

Consider L15A . Its measured protein stability index is 1.74

For T12A the variant record lists protein stability index as 2.18

Entry V10Q — recorded protein stability index = 1.82

// protein stability index lookup, variant = K5T , result: 2.15

Documented protein stability index of E16T : 1.63

Lab book: protein stability index of D9K noted as 1.65

What the record says about K8L : protein stability index is 2.44

Record summary for F20M : reported protein stability index = 1.88

The reported value for L15S in terms of protein stability index is 2.03

Lab book: protein stability index of D23R noted as 1.42

// E16R : protein stability index value = 2.46

// protein stability index value for I2A : 1.79

# protein stability index (variant: F1V ) is 3.54

The value of protein stability index measured for the variant G17Y turned out to be 2.06

Value of protein stability index reported for the variant P3D is 2.63

GET /value?item= T12Y &field=protein stability index returns 1.92

The measured protein stability index associated with L24M reads 2.23

The variant listed as F20N shows protein stability index equal to 2.76

// K5V : protein stability index value = 1.72

Measured protein stability index of I14R : 1.55

Reported protein stability index ( T12D ) = 1.56

Entry under test: A11V . Its protein stability index was 1.94

Notebook: A11P , protein stability index read as 1.78

Measured protein stability index of L19P : 1.98

Data point: A4T ; protein stability index = 1.96

Just so you know, measured protein stability index for K5R came out at 1.75

For reference, reported protein stability index for F20K stands at 2.08

Documented protein stability index of F22E : 3.2

Entry I14K ; protein stability index = 1.72

Record Q13Y . Reported protein stability index: 2.09

# protein stability index (variant: K8Y ) is 2.27

protein stability index for I2W is 2.3

The variant E16S showed protein stability index equal to 2.76

Query I14T yields protein stability index of 2.79

Notebook: F22T , protein stability index read as 2.67

Recorded protein stability index (variant L19S ): 1.98
